Sourced from ChEMBL document CHEMBL1926647

A collection of compounds and their measured concentration at 4 h
assay_method_text: Drug uptake in wild type CF1 mouse plasma at 30 mg/kg, po after 4 hrs
Type: ADME, organism-based
Parameters: dose 30 mg/kg, route oral
Kindly provide the numeric value in µM only, without the unit symbol.

compound	meas_value
O=C(O)Cc1ccc(C(C2CCCCC2)N2CCC(C(F)(F)F)CC2)c(-c2ccc(C(F)(F)F)cc2)c1 (stereo unspecified)	23

Please look up its concentration at 4 h: CC(C)CCC(c1ccc(C(C)(C)C(=O)O)cc1-c1ccc(C(F)(F)F)cc1)N1CCC(C(F)(F)F)CC1 (stereo unspecified)
21

Please look up its concentration at 4 h: CC(C)CCC(c1ccc(C(CC(C)C)C(=O)O)cc1-c1ccc(C(F)(F)F)cc1)N1CCC(C(F)(F)F)CC1 (stereo unspecified)
14
